Entries and their activity
# target-or-system: Phenylethanolamine N-methyltransferase (Homo sapiens) (UniProt P11086)
# Sequence (P11086 whole entry, looked up): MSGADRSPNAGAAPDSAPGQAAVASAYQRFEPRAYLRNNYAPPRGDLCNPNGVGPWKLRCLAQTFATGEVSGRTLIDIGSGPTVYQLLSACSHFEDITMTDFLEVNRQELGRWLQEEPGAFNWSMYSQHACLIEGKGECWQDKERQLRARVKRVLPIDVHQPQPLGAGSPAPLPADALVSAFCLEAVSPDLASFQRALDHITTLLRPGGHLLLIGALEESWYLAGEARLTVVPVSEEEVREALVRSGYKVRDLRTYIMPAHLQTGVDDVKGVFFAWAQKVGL
# measurement-notes: Confirmatory Screen for Target Class Profiling of Small Molecule Inhibitors of Methyltransferases (AID 1745852)
# measurement-conditions: MTase-Glo luminescence, SAH detection, recombinant enzyme; measured here: PNMT max response; stronger effect = lower value
property-measured: activity (%)

{"molecule": "CC(CNC(=O)CCc1nnc2n(Cc3ccc(F)cc3)c(=O)c3ccccc3n12)c1ccccc1 (stereo not given)", "unit-tag": "%", "measurement": -0.739}
{"molecule": "CCCC1c2cccn2CCN1C(=O)Nc1ccc(F)cc1F (stereo not given)", "unit-tag": "%", "measurement": -3.85}
{"molecule": "COc1cncc(Nc2ncc(-c3ccccc3OC)c3c2OCC3)c1", "unit-tag": "%", "measurement": 0.675}
{"molecule": "CC(C)CCn1c(=O)c2ccccc2n2c(CCC(=O)N3CCN(c4cccc(Cl)c4)CC3)nnc12", "unit-tag": "%", "measurement": -8.01}
{"molecule": "CCCC1c2cccn2CCN1C(=O)Nc1cccc(C(F)(F)F)c1 (stereo not given)", "unit-tag": "%", "measurement": -5.65}
{"molecule": "CC(C)Cn1c(=O)c2ccccc2n2c(CCC(=O)N3CCN(c4ccc(F)cc4)CC3)nnc12", "unit-tag": "%", "measurement": -6.74}
{"molecule": "Cc1ccc(CNC(=O)c2ccc3c(=O)[nH]c4c(C(=O)NC(C)C)sc(=S)n4c3c2)cc1", "unit-tag": "%", "measurement": -17.2}
{"molecule": "COc1ccc(N2C(=O)c3ccc(-c4ccco4)n3CC2(C)C(=O)NCc2ccccc2)cc1OC (stereo not given)", "unit-tag": "%", "measurement": -3.81}
{"molecule": "Cn1ccc2c(C(=O)NCCc3cnc[nH]3)nc(-c3ccc(N4CCOCC4)cc3)cc21", "unit-tag": "%", "measurement": -6.64}
{"molecule": "Cc1cc(NS(=O)(=O)c2ccc3[nH]c(=O)[nH]c3c2)ccc1Br", "unit-tag": "%", "measurement": -63.7}
{"molecule": "COCCCN1C(=O)c2cc3c(OC)ccc(OC)c3n2CC1(C)C(=O)NC1CCCCC1 (stereo not given)", "unit-tag": "%", "measurement": -10}
{"molecule": "COc1cccc([S+](=O)([O-])N2CCC3(C2)N=C(c2cccnc2)C(=O)N3)c1 (stereo not given)", "unit-tag": "%", "measurement": -16.9}
{"molecule": "O=C(CCc1nnc2n(Cc3ccc(Cl)cc3)c(=O)c3ccccc3n12)N1CCC(N2CCCCC2)CC1", "unit-tag": "%", "measurement": 0.847}
{"molecule": "CCOC(=O)CC1(NC(=O)N2CCn3cccc3C2Cc2ccccc2)CCCCC1 (stereo not given)", "unit-tag": "%", "measurement": -4.39}
{"molecule": "COc1ccc(-c2[nH]ncc2CN2CC[C@H]3CC[C@@H](C2)N3)cc1", "unit-tag": "%", "measurement": 7.25}
{"molecule": "COc1cccc(N2C(=O)NC(=NC3CCCCC3)C23CCCN(CC2CCCCC2)C3)c1 (stereo not given)", "unit-tag": "%", "measurement": 1.19}
{"molecule": "CN(CCCNC(=O)CCc1nnc2n(Cc3ccccc3)c(=O)c3ccccc3n12)Cc1ccccc1", "unit-tag": "%", "measurement": -2.41}
{"molecule": "O=C(O)c1ccc2c(c1)C1C=CCC1C(c1ccc(Cl)cc1)N2 (stereo not given)", "unit-tag": "%", "measurement": -23.3}
{"molecule": "c1ccc(Cn2cc(CN3CCN(c4ccncc4)CC3)c(-c3cc4ccccc4o3)n2)cc1", "unit-tag": "%", "measurement": 6.65}
{"molecule": "CC1CCN(CCCNC(=O)CCc2nnc3n(Cc4ccc(Cl)cc4)c(=O)c4ccccc4n23)CC1", "unit-tag": "%", "measurement": -5.13}

###

# measurement-notes: Cell Viability - H-4-II-E (AID 543);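 further: cells exposed to compound for 40 hours; nearly all actives have a fitted effect of over 35% in size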
# measurement-conditions: H-4-II-E rat hepatoma viability; series mostly up to 92.2 µM
Records with an inconclusive call do not appear. Calls of active or inactive are those of the source. Calls come from the whole dose curve; as a rule, active = well fitted cell-killing curve with a large enough effect; inconclusive = small, poorly fitted or top-dose-only effect; inactive = flat fitted curve, though single readings scatter.
Outcomes: t = active, f = inactive

{"compound": "Clc1cc(Cl)c(Cl)c(Cl)c1Cl", "label": "f"}
{"compound": "CCO", "label": "f"}
{"compound": "S=C1NC=NC2N=CNC12 (configuration not stated)", "label": "t"}
{"compound": "CC1=CC(C)(C)Nc2ccccc21", "label": "f"}
{"compound": "Nc1ccc(S(=O)(=O)O)cc1", "label": "f"}
{"compound": "C[C@H](CCC(=O)O)[C@H]1CC[C@H]2[C@@H]3CC[C@@H]4C[C@H](O)CC[C@]4(C)[C@H]3CC[C@]12C", "label": "f"}
{"compound": "C=CCc1ccc(OC)c(OC)c1", "label": "f"}

###

# target-or-system: Phospholipid hydroperoxide glutathione peroxidase GPX4 (Homo sapiens)
# measurement-notes: Primary qHTS Assay for Inhibitors of Recombinant Selenoprotein Glutathione Peroxidase 4 (GPX4) (AID 1845192); further: nearly all actives have a fitted effect of over 65% in size
# measurement-conditions: recombinant GPX4, GR-coupled NADPH fluorescence, 15 min; series mostly up to 50 µM
Records with an inconclusive call do not appear. The source made the active and inactive calls. The call rests on the fitted dose curve; in most records, active means well fitted inhibition curve with a large enough effect; inconclusive means small, poorly fitted or top-dose-only effect; inactive means flat fitted curve, though single readings scatter.
property-measured: outcome

{"smiles-text": "C[C@]12C=CC(=O)C=C1CC[C@@H]1[C@@H]2[C@@H](O)C[C@@]2(C)[C@H]1CC[C@]2(O)C(=O)COP(=O)(O)O", "measurement": "inactive [at 9.73 µM]"}
{"smiles-text": "[2H]N[C@@H](Cc1ccccc1)C(=O)N1CCC[C@H]1C(=O)N[C@@H](CCCNC(=N)N)C(=O)N1CCC[C@H]1C(=O)NCC(=O)NCC(=O)NCC(=O)NCC(=O)N[C@@H](CC(N)=O)C(=O)NCC(=O)N[C@@H](CC(=O)O)C(=O)N[C@@H](Cc1ccccc1)C(=O)N[C@@H](CCC(=O)O)C(=O)N[C@@H](CCC(=O)O)C(=O)N[C@H](C(=O)N1CCC[C@H]1C(=O)N[C@@H](CCC(=O)O)C(=O)N[C@@H](CCC(=O)O)C(=O)N[C@@H](Cc1ccc(O)cc1)C(=O)N[C@@H](CC(C)C)C(=O)O)[C@@H](C)CC", "measurement": "inactive [at 9.73 µM]"}

###

# target-or-system: Catechol O-methyltransferase (Homo sapiens)
# measurement-notes: Confirmatory Screen for Target Class Profiling of Small Molecule Inhibitors of Methyltransferases (AID 1745852)
# measurement-conditions: MTase-Glo luminescence, SAH detection, recombinant enzyme; measured here: COMT max response; stronger effect = lower value

{"compound": "Cc1cnc(C2CC2)n1C1CCCN(Cc2ccccc2)C1 (centres undefined)", "target-or-system": "Catechol O-methyltransferase (Homo sapiens)", "activity [%]": 3.04}
{"compound": "COc1cccc2c1OCCCN(c1cc(C3CC(O)C3)nc(N)n1)C2 (centres undefined)", "target-or-system": "Catechol O-methyltransferase (Homo sapiens)", "activity [%]": 5.04}
{"compound": "O=C(NCCCN1CCc2ccccc2C1)C1CCc2ncc(-c3ccc(F)cc3)n2C1 (centres undefined)", "target-or-system": "Catechol O-methyltransferase (Homo sapiens)", "activity [%]": -4.39}
{"compound": "CCN(CC)CCNC(=O)CCc1nnc2n(Cc3ccccc3Cl)c(=O)c3ccccc3n12", "target-or-system": "Catechol O-methyltransferase (Homo sapiens)", "activity [%]": -5.86}
{"compound": "CN1C(=O)C(c2ccccc2)CC12CCN(c1ccnc(N)n1)CC2 (centres undefined)", "target-or-system": "Catechol O-methyltransferase (Homo sapiens)", "activity [%]": 6.59}
{"compound": "CCCn1c(=O)c2cc(F)ccc2n2c(SCc3c(F)cccc3Cl)nnc12", "target-or-system": "Catechol O-methyltransferase (Homo sapiens)", "activity [%]": 4.81}
{"compound": "Cc1ccc2c(c1)c(-n1cccc1)c1n2CC(C)(C(=O)NC2CCCCC2)N(Cc2ccccn2)C1=O (centres undefined)", "target-or-system": "Catechol O-methyltransferase (Homo sapiens)", "activity [%]": 4.89}
{"compound": "CC(C)CCn1c(=O)c2ccccc2n2c(CCC(=O)N3CCN(c4ccccc4F)CC3)nnc12", "target-or-system": "Catechol O-methyltransferase (Homo sapiens)", "activity [%]": 1.06}
{"compound": "COc1ccc(OC)c(CN2CCNc3cc(-c4ccnc(C)c4)ncc3C2)c1", "target-or-system": "Catechol O-methyltransferase (Homo sapiens)", "activity [%]": 6.21}
{"compound": "CC(C)Cn1c(=O)c2ccccc2n2c(=O)n(CC(=O)c3cccc(Cl)c3)nc12", "target-or-system": "Catechol O-methyltransferase (Homo sapiens)", "activity [%]": -9.22}
{"compound": "O=C(NCc1cccc(Cl)c1)c1sc(=S)n2c1[nH]c(=O)c1cc3c(cc12)OCO3", "target-or-system": "Catechol O-methyltransferase (Homo sapiens)", "activity [%]": -21.3}
{"compound": "CN1CCN(c2ncnc3sc4c(c23)CCNC4)CC1", "target-or-system": "Catechol O-methyltransferase (Homo sapiens)", "activity [%]": -1.43}
{"compound": "Cn1cnc(CN2CCNc3cc(Nc4ccccc4)ncc3C2)c1", "target-or-system": "Catechol O-methyltransferase (Homo sapiens)", "activity [%]": 7.14}
{"compound": "c1ccc(Cn2cc(CN3CCN(c4ccncc4)CC3)c(-c3cc4ccccc4o3)n2)cc1", "target-or-system": "Catechol O-methyltransferase (Homo sapiens)", "activity [%]": 5.39}
{"compound": "O=c1c2ccccc2n2c(-c3ccc(F)c(F)c3)nnc2n1Cc1ccccc1Cl", "target-or-system": "Catechol O-methyltransferase (Homo sapiens)", "activity [%]": -2.11}
{"compound": "Cc1ccc(Cn2c(=O)c3ccccc3n3c(CCC(=O)N4CCC(N5CCCCC5)CC4)nnc23)cc1", "target-or-system": "Catechol O-methyltransferase (Homo sapiens)", "activity [%]": -6.25}
{"compound": "CCCCN1C(=O)c2cc(C(=O)NCc3ccc(OC)cc3OC)nn2CC1(C)C(=O)NC1CCCC1 (centres undefined)", "target-or-system": "Catechol O-methyltransferase (Homo sapiens)", "activity [%]": 0.43}
{"compound": "CCn1cc(CN2CCCC23CCN(c2cc(C)nc4ccccc24)CC3)c(C)n1", "target-or-system": "Catechol O-methyltransferase (Homo sapiens)", "activity [%]": 3.11}
{"compound": "COC(=O)c1nc(NC(=O)Cn2nc3c(cc2=O)CCCC3)sc1C(C)C", "target-or-system": "Catechol O-methyltransferase (Homo sapiens)", "activity [%]": -1.05}
